Consider the following substances; for each one, report its MIC.
System: S. aureus ATCC 33591
Conditions: LYM broth, 0.5 mM MgCl2
Numbers only, in µg/mL.

State recorded MIC for all listed substances.
1. Ac-WRKWLKWLAKKKK-NH2 [Peptide W5K02]
2. Ac-LKWLAKKKKWRKW-NH2 [Peptide W5K06]
3. Ac-AKKKKWRKWLKWL-NH2 [Peptide W5K10]
4. Ac-WLKWLAKKKKWRK-NH2 [Peptide W5K05]

Reply:
6.25
12.5
3.13
6.25

Kindly give each listed record's MIC.
1. Ac-KWLKWLAKKKKWR-NH2 [Peptide W5K04]
2. Ac-KWRKWLKWLAKKK-NH2 [Peptide W5K01]

Reply:
1. 25
2. 6.25

Reported MIC of Ac-WLAKKKKWRKWLK-NH2 [Peptide W5K08] : 25

Ref: paper PMC12649549
